- Tested on: kochia
- assay.protocol: Test A postemergence
- Assay type: in vivo, Kochia scoparia
- stated.conditions: 125 g ai/ha, 0 to 100 scale where 0 is no effect and 100 is complete control
- From the text: […]
This section presents molecules with their documented Kochia plant response rating values.
Answer as a number with no unit attached.

CC(C)Oc1cnn(-c2c(C#N)cccc2Oc2ncc(F)cn2)c1 [Compound 158] :: 80
FC(F)(F)COc1cnn(-c2c(Br)cccc2Oc2ncc(Cl)cn2)c1 [Compound 128] :: 80
CC(C)Oc1cnn(-c2c(Br)cccc2Oc2ncc(Cl)cn2)c1 [Compound 148] :: 30

stdin: Could you tell me which Kochia plant response rating is on file for CCCc1cnc(Oc2cccc(C#N)c2-n2cc(Br)cn2)nc1 [Compound 131] ?
stdout: 0
